Measured values drawn from ChEMBL document CHEMBL1201862 for this set.

test system: SR; test: NCI tumour cell line growth inhibition, 48 h
The source made the active and inactive calls. Cut-off read from the data, not from the text of the source: active = GI50 up to about 1.1 µM and inactive = higher.
Reply using exactly one outcome from active, inactive

Which result was noted for this compound in the test: C=CC/N=C(\S)Nc1sc2c(c1C(=O)OCC)CC(C)CC2 (configuration not stated)
inactive

Called result for `Nc1ccc(C2=N/C(=C\c3cccc(N)c3)C(=O)O2)cc1`
inactive

Which outcome did this test record for the compound `Cc1c(C(=O)/C=C/c2ccco2)[n+]([O-])c2ccccc2[n+]1[O-]` ?
inactive

Record lookup: outcome of this test for CC[C@H](C)[C@@H]([C@@H](CC(=O)N1CCC[C@H]1[C@H](OC)[C@@H](C)C(=O)NCCc1ccccc1)OC)N(C)C(=O)C(NC(=O)[C@H](C(C)C)N(C)C)C(C)C (some centres not stated) ?
active

Query: recorded result category for `COc1ccc2c(c1)[n+]([O-])c(/C(C)=N/NC(N)=S)c(C)[n+]2[O-]` in this test
inactive

Record request — test call for O=C(Cc1ccccc1)N/N=C(\C1=Nc2ccc([N+](=O)[O-])cc2NC1O)C(O)c1ccc([N+](=O)[O-])cc1 (configuration not stated)
inactive

Each compound tested received a call. Report the one for CC1CCCN1CCCOC(=O)c1ccc(OC2C=CCCC2)cc1 (configuration not stated) .
inactive
